Would you mind telling me the reported IC50 of each entry?
- Test system: ICAM-1 expression in human umbilical cord vascular endothelial cells
- experiment: Inhibitory activity of adhesion molecule expression (ICAM-1, cell-ELISA)
- Format: cell-based
- condition_label: TNFα 1 ng/ml, 37° C., 5 hours
Quick reminder: number only, in µM, skip the unit.

IN: I have this molecule here, O=C1SC(=CCCCc2ccccc2)C(=O)N1CCCCSc1cccc2nccn12 , and I need its recorded IC50.
OUT: 4

IN: I have this molecule here, CC(C)c1c2n(c(=O)n(CCCCSc3cccc4nccn34)c1=O)CCCS2(=O)=O , and I need its recorded IC50.
OUT: 1.5

IN: I have this molecule here, CCCC=C1SC(=O)N(CCCCOc2cccn3cc(C)nc23)C1=O , and I need its recorded IC50.
OUT: 6.4

IN: I have this molecule here, CCCC=C1SC(=O)N(CCc2cccc3nccn23)C1=O , and I need its recorded IC50.
OUT: 6.1

IN: I have this molecule here, O=C1SC(=CCCc2ccc(F)cc2)C(=O)N1CCCCSc1cccc2nccn12 , and I need its recorded IC50.
OUT: 3.6

IN: I have this molecule here, O=C1SC(=CCCCCc2ccccc2)C(=O)N1CCCCSc1cccc2nccn12 , and I need its recorded IC50.
OUT: 5.3

IN: I have this molecule here, O=c1c(-c2ccccc2)c2n(c(=O)n1CCCCSc1cccc3nccn13)CCS2(=O)=O , and I need its recorded IC50.
OUT: 3.7

IN: I have this molecule here, CCCCCCCC=C1SC(=O)N(CCCCSc2cccc3nccn23)C1=O , and I need its recorded IC50.
OUT: 9

IN: I have this molecule here, O=c1c(-c2ccccc2)c2n(c(=O)n1CCCCSc1cccc3nccn13)CCC[S+]2[O-] (stereo not drawn) , and I need its recorded IC50.
OUT: 6.8

* * *

- System: ICAM-1 expression in human umbilical cord vascular endothelial cells
- experiment: Inhibitory activity of adhesion molecule expression (ICAM-1, cell-ELISA)
- Type: cell-based
- condition_label: TNFα 1 ng/ml, 37° C., 5 hours
measured_attribute: IC50 (µM)
Quick reminder: number only, in µM, skip the unit.

IN: I have this compound here, O=C1SC(=CCCc2ccccc2)C(=O)N1CCCCOc1cccn2ccnc12 , and I need its recorded IC50.
OUT: 3.9

IN: I have this compound here, O=C1SC(=CCCc2cccnc2)C(=O)N1CCCCSc1cccc2nccn12 , and I need its recorded IC50.
OUT: 3.7

IN: I have this compound here, CN(C)Cc1cnc2cccc(SCCCCn3c(=O)c(-c4ccccc4)c4n(c3=O)CCCS4(=O)=O)n12 , and I need its recorded IC50.
OUT: 5.7

IN: I have this compound here, COc1ccc(CCC=C2SC(=O)N(CCCCSc3cccc4nccn34)C2=O)cc1 , and I need its recorded IC50.
OUT: 4.1

* * *

- Tested on: ICAM-1 expression in human umbilical cord vascular endothelial cells
- experiment: Inhibitory activity of adhesion molecule expression (ICAM-1, cell-ELISA)
- Type: cell-based
- condition_label: TNFα 1 ng/ml, 37° C., 5 hours
Would you mind telling me the reported pIC50 of each entry?
pIC50 here: minus log base 10 of the concentration, concentration in moles per litre.

IN: Record O=c1c(-c2ccccc2)c2n(c(=O)n1CCCCSc1cccc3nccn13)CCCS2(=O)=O [compound 24] : what is its pIC50 with ICAM-1 expression in human umbilical cord vascular endothelial cells?
OUT: 5.96

IN: Record CCCC=C1SC(=O)N(CCCCSc2cccc3ncc(Br)n23)C1=O [compound 50] : what is its pIC50 with ICAM-1 expression in human umbilical cord vascular endothelial cells?
OUT: 5.16

IN: Record O=C1OC(=CCCc2ccccc2)C(=O)N1CCCCOc1cccn2ccnc12 [compound 32] : what is its pIC50 with ICAM-1 expression in human umbilical cord vascular endothelial cells?
OUT: 5.24

IN: Record CCCC=C1SC(=O)N(CCCCCc2cccc3nccn23)C1=O [compound 3] : what is its pIC50 with ICAM-1 expression in human umbilical cord vascular endothelial cells?
OUT: 5.38

* * *

- Test system: ICAM-1 expression in human umbilical cord vascular endothelial cells
- experiment: Inhibitory activity of adhesion molecule expression (ICAM-1, cell-ELISA)
- Format: cell-based
- condition_label: TNFα 1 ng/ml, 37° C., 5 hours
measured_attribute: IC50
Could you give the number and then its unit, please?

IN: I have this molecule here, CCCC=C1SC(=O)N(CCCCOc2cccc3nccn23)C1=O , and I need its recorded IC50.
OUT: 4.4 µM

IN: I have this molecule here, CCCC=C1SC(=O)N(CCC2(CCSc3cccc4nccn34)CCCC2)C1=O , and I need its recorded IC50.
OUT: 5.5 µM

IN: I have this molecule here, O=C(NCCCn1c(=O)c(-c2ccccc2)c2n(c1=O)CCCS2(=O)=O)OCCc1cccc2nccn12 , and I need its recorded IC50.
OUT: 6.3 µM

IN: I have this molecule here, CCC/C=C1/OC(=O)N(CCCCOc2cccn3c(C(=O)C(F)(F)F)cnc23)C1=O , and I need its recorded IC50.
OUT: 6 µM

IN: I have this molecule here, CCCC=C1SC(=O)N(Cc2cccc3nccn23)C1=O , and I need its recorded IC50.
OUT: 7 µM

IN: I have this molecule here, CCC/C=C1\OC(=O)N(CCCCOc2cccn3c(C(=O)C(F)(F)F)cnc23)C1=O , and I need its recorded IC50.
OUT: 7.1 µM

IN: I have this molecule here, CCCCCC=C1OC(=O)N(CCCCOc2cccn3ccnc23)C1=O , and I need its recorded IC50.
OUT: 6.1 µM

IN: I have this molecule here, O=C1OC(=CCCc2ccccc2)C(=O)N1CCCCSc1cccc2nccn12 , and I need its recorded IC50.
OUT: 6.3 µM

IN: I have this molecule here, CCCC=C1SC(=O)N(CCCCOc2cccn3c(C(=O)C(F)(F)F)cnc23)C1=O , and I need its recorded IC50.
OUT: 6.1 µM

* * *

Would you mind telling me the reported pIC50 of each entry?
- Test system: ICAM-1 expression in human umbilical cord vascular endothelial cells
- experiment: Inhibitory activity of adhesion molecule expression (ICAM-1, cell-ELISA)
- Assay type: cell-based
- condition_label: TNFα 1 ng/ml, 37° C., 5 hours
pIC50 here: minus log base 10 of the concentration, concentration in moles per litre.

IN: I have this compound here, O=C1SC(=CCCc2ccc(Cl)cc2)C(=O)N1CCCCSc1cccc2nccn12 , and I need its recorded pIC50.
OUT: 5.41

IN: I have this compound here, O=c1c(Cc2ccccc2)c2n(c(=O)n1CCCCSc1cccc3nccn13)CCCS2(=O)=O , and I need its recorded pIC50.
OUT: 6.05

IN: I have this compound here, CCCC=C1SC(=O)N(CCCCSc2nccc3nccn23)C1=O , and I need its recorded pIC50.
OUT: 5.10

IN: I have this compound here, O=C1SC(=CCCc2ccccc2Cl)C(=O)N1CCCCSc1cccc2nccn12 , and I need its recorded pIC50.
OUT: 5.44

IN: I have this compound here, CC=C1SC(=O)N(CCCCSc2cccc3nccn23)C1=O , and I need its recorded pIC50.
OUT: 5.54

IN: I have this compound here, O=C1SC(=CCCc2ccccc2F)C(=O)N1CCCCSc1cccc2nccn12 , and I need its recorded pIC50.
OUT: 5.42

IN: I have this compound here, CCCC=C1SC(=O)N(CCCCOc2cccn3ccnc23)C1=O , and I need its recorded pIC50.
OUT: 5.34

IN: I have this compound here, CCCC=C1SC(=O)N(CCCCc2cccc3nccn23)C1=O , and I need its recorded pIC50.
OUT: 5.51

IN: I have this compound here, CCCCCCCCCC=C1SC(=O)N(CCCCOc2cccn3ccnc23)C1=O , and I need its recorded pIC50.
OUT: 5.25

* * *

Would you mind telling me the reported pIC50 of each entry?
- Test system: ICAM-1 expression in human umbilical cord vascular endothelial cells
- experiment: Inhibitory activity of adhesion molecule expression (ICAM-1, cell-ELISA)
- Format: cell-based
- condition_label: TNFα 1 ng/ml, 37° C., 5 hours
pIC50 here: minus log base 10 of the concentration, concentration in moles per litre.

IN: I have this compound here, CCCCCC=C1SC(=O)N(CCCCOc2cccn3ccnc23)C1=O [compound 70] , and I need its recorded pIC50.
OUT: 5.16

IN: I have this compound here, CCCC=C1SC(=O)N(CCCc2cccc3nccn23)C1=O [compound 12] , and I need its recorded pIC50.
OUT: 5.31

IN: I have this compound here, Cc1c2n(c(=O)n(CCCCSc3cccc4nccn34)c1=O)CCCS2(=O)=O [compound 40] , and I need its recorded pIC50.
OUT: 5.74

IN: I have this compound here, COc1ccccc1CCC=C1SC(=O)N(CCCCSc2cccc3nccn23)C1=O [compound 81] , and I need its recorded pIC50.
OUT: 5.37

IN: I have this compound here, CCCCCCCC=C1SC(=O)N(CCCCOc2cccn3ccnc23)C1=O [compound 71] , and I need its recorded pIC50.
OUT: 5.28

IN: I have this compound here, CCCCCCCCCC=C1SC(=O)N(CCCCSc2cccc3nccn23)C1=O [compound 6] , and I need its recorded pIC50.
OUT: 5.20

IN: I have this compound here, CCCC=C1SC(=O)N(CCCCOc2cccn3cc(C(=O)OCC)nc23)C1=O [compound 27] , and I need its recorded pIC50.
OUT: 5.19

IN: I have this compound here, CCCCCCC=C1SC(=O)N(CCCCSc2cccc3nccn23)C1=O [compound 57] , and I need its recorded pIC50.
OUT: 5.15

IN: I have this compound here, CCCC=C1SC(=O)N(CCCCSc2cccc3ncc(C(=O)C(F)(F)F)n23)C1=O [compound 35] , and I need its recorded pIC50.
OUT: 5.34

IN: I have this compound here, O=C1SC(=CCCc2cccnc2)C(=O)N1CCCCOc1cccn2ccnc12 [compound 39] , and I need its recorded pIC50.
OUT: 5.62

IN: I have this compound here, CCC=C1SC(=O)N(CCCCOc2cccn3ccnc23)C1=O [compound 68] , and I need its recorded pIC50.
OUT: 5.30

IN: I have this compound here, CCCC=C1SC(=O)N(CSc2cccc3nccn23)C1=O [compound 13] , and I need its recorded pIC50.
OUT: 5.20

IN: I have this compound here, CCCC=C1SC(=O)N(CCCCOc2cccn3cc(-c4ccccc4)nc23)C1=O [compound 26] , and I need its recorded pIC50.
OUT: 5.43

IN: I have this compound here, CCCC=C1OC(=O)N(CCCCSc2cccc3nccn23)C1=O [compound 9] , and I need its recorded pIC50.
OUT: 5.62

IN: I have this compound here, CCC=C1SC(=O)N(CCCCSc2cccc3nccn23)C1=O [compound 10] , and I need its recorded pIC50.
OUT: 5.62

IN: I have this compound here, CCCC=C1SC(=O)N(CCCCSc2cccc3nc(C)cn23)C1=O [compound 23] , and I need its recorded pIC50.
OUT: 5.15

IN: I have this compound here, CCCC=C1SC(=O)N(CCCOc2cccn3ccnc23)C1=O [compound 47] , and I need its recorded pIC50.
OUT: 5.38

IN: I have this compound here, O=C1SC(=CCCc2ccccc2)C(=O)N1CCCCSc1cccc2nccn12 [compound 19] , and I need its recorded pIC50.
OUT: 5.41

IN: I have this compound here, CCCC=C1SC(=O)N(CCSc2cccc3nccn23)C1=O [compound 5] , and I need its recorded pIC50.
OUT: 5.46
